# koff per entry
Target: T1, human ROR1-hFc fusion protein (extracellular domain) (human, UniProt Q01973 30-406)
T1 construct: extracellular domain; Immobilised by amine coupling on COOH2 chips or AR2G sensors; also called hROR1; not shown: human Fc (hFc)
Protocol Details: SPR (Pioneer) or BLI (Octet K2); ROR1-hFc extracellular domain amine-coupled
Kindly provide the numeric value in s⁻¹ only, without the unit symbol.

Worked examples, 3 binders total:
Binder	Measure Unit	Result
hFc - P3A1 (Fc fusion, VNAR at the C-terminus of the Fc, by the printed name; not shown: human IgG1 Fc domain) GGGGSGGGGSGGGGSTRVDQTPRTATKETGESLTINCVLTDTSYGLYSTSWFRKNPGTTDWERMSIGGRYVESVNKGAKSFSLRIKDLTVADSATYYCKAREARHPWLRQWYDGAGTVLTVN	s⁻¹	0.000776
B1V15 hFc (Fc fusion, Humanised B1 variant fused to hFc; not shown: human IgG1 Fc domain) ASVTQSPRSASKETGESLTITCRVTGANYGLAATYWYRKNPGSSNQERISISGRYSESVNKRTMSFSLRISSLTVEDSATYYCKAYPWGAGAPWLVQWYDGQGTKLEVKGGGGSGGGGSGGGGS	s⁻¹	0.00013
P3A1 hFc(442) (Fc fusion, hIgG1 Fc with S442C (EU); also called P3A1hFc(S442C); not shown: human IgG1 Fc domain) TRVDQTPRTATKETGESLTINCVLTDTSYGLYSTSWFRKNPGTTDWERMSIGGRYVESVNKGAKSFSLRIKDLTVADSATYYCKAREARHPWLRQWYDGAGTVLTVNGGGGSGGGGSGGGGS	s⁻¹	0.0002

Next:
So, P3A1 hFc (Fc fusion, VNAR fused to engineered hIgG1 Fc via [G4S]3; also called P3A1hFc(S239C); not shown: human IgG1 Fc domain) TRVDQTPRTATKETGESLTINCVLTDTSYGLYSTSWFRKNPGTTDWERMSIGGRYVESVNKGAKSFSLRIKDLTVADSATYYCKAREARHPWLRQWYDGAGTVLTVNGGGGSGGGGSGGGGS ? Its koff was 0.000564
